- study_system: Fyn (UniProt P06241)
- Sequence (P06241 whole entry, looked up): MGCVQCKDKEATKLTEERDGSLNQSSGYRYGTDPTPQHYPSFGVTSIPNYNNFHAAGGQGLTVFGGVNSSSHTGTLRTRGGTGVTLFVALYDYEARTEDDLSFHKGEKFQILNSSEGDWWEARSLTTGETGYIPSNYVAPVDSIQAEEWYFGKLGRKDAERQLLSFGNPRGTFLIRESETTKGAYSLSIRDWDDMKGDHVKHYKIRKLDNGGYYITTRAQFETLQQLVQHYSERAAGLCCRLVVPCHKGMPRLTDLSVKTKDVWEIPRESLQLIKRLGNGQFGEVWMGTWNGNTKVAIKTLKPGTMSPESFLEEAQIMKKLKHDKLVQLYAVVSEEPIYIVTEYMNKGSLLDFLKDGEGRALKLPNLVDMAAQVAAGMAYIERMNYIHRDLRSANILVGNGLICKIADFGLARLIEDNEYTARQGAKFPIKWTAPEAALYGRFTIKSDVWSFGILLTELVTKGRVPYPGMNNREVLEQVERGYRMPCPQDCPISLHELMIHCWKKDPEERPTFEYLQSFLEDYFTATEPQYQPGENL
- protocol: phosphorylation enrichment, bacterial display (enrichment ratio); higher = better substrate or ligand; peptides without Tyr show the background
Categories are defined by ranges of phosphorylation enrichment, namely range A = under 0.6, range B = from 0.6 up to 1, range C = 1 and over

Task item: Into which category would you place DEEPPDRGPFC [SASH1_Y551_Y551D] ?
Reply: range A

Task item: Into which category would you place PIDLYYLMDLS [ITGB2_Y131] ?
Reply: range C

Task item: Into which category would you place LNPFIYSLRNW [OR1A2_Y288] ?
Reply: range C

Task item: Into which category would you place FVSSFYHAFSG [ACTN4_Y265_YF] ?
Reply: range C

Task item: Into which category would you place NFGTNYRVGSS [CPO_Y278_K273N_YF] ?
Reply: range A

Task item: Into which category would you place AIGYEYSEINI [SIGLEC12_Y588] ?
Reply: range C

Task item: Into which category would you place MPIPMYDASQA [CARMIL1_Y637] ?
Reply: range B

Task item: Into which category would you place PGIRMYQVQYN [LRFN1_Y454] ?
Reply: range B

Task item: Into which category would you place SYDLDYDSVQP [MYC_Y16_N11S] ?
Reply: range B

Task item: Into which category would you place LQFRNYQQLFD [MAN2A1_Y442_K440R] ?
Reply: range C

Task item: Into which category would you place HITQVYGFYDE [PPP2CA_Y127_Q122H] ?
Reply: range C

====

- study_system: Fyn (UniProt P06241)
- protocol: phosphorylation enrichment, bacterial display (enrichment ratio); higher = better substrate or ligand; peptides without Tyr show the background
quantity: phosphorylation enrichment
The response must contain the number and no unit.

What the record says about IKAGAYDFPSP [CAMK2A_Y230] : phosphorylation enrichment is 0.747

What the record says about SRDDFYETIAM [NPY1R_Y347_D346Y_YF] : phosphorylation enrichment is 1.44

What the record says about GIKAAYEAELG [LMNA_Y81] : phosphorylation enrichment is 0.597

What the record says about SSSGGYGGGFG [KRT19_Y61_A60G_YF] : phosphorylation enrichment is 0.355

What the record says about MECLPYGSLRD [JAK2_Y934_Y931C] : phosphorylation enrichment is 0.753

What the record says about SDMGQYQCLVF [AXL_Y115_T112M] : phosphorylation enrichment is 2.35

What the record says about QHVPDYRQNGF [PCDHGA1_Y890_V894G_YF] : phosphorylation enrichment is 0.531

What the record says about LYEDHYLLGTS [ASS1_Y87_R86H] : phosphorylation enrichment is 1.86

What the record says about AIIGIYILRDN [CDH23_Y2949_D2954N] : phosphorylation enrichment is 0.925

What the record says about SHISGYAALRR [RAPH1_Y1226_T1228A] : phosphorylation enrichment is 0.494

What the record says about MPIPMYDGSQA [CARMIL1_Y637_A639G] : phosphorylation enrichment is 0.52

What the record says about RGYRQYAYDGK [HLA-A_Y140_D140Y] : phosphorylation enrichment is 0.252

What the record says about RLLVVYPWNQR [HBB_Y36_T39N] : phosphorylation enrichment is 0.603

====

- study_system: MERTK (UniProt Q12866)
- Sequence (Q12866 whole entry, looked up): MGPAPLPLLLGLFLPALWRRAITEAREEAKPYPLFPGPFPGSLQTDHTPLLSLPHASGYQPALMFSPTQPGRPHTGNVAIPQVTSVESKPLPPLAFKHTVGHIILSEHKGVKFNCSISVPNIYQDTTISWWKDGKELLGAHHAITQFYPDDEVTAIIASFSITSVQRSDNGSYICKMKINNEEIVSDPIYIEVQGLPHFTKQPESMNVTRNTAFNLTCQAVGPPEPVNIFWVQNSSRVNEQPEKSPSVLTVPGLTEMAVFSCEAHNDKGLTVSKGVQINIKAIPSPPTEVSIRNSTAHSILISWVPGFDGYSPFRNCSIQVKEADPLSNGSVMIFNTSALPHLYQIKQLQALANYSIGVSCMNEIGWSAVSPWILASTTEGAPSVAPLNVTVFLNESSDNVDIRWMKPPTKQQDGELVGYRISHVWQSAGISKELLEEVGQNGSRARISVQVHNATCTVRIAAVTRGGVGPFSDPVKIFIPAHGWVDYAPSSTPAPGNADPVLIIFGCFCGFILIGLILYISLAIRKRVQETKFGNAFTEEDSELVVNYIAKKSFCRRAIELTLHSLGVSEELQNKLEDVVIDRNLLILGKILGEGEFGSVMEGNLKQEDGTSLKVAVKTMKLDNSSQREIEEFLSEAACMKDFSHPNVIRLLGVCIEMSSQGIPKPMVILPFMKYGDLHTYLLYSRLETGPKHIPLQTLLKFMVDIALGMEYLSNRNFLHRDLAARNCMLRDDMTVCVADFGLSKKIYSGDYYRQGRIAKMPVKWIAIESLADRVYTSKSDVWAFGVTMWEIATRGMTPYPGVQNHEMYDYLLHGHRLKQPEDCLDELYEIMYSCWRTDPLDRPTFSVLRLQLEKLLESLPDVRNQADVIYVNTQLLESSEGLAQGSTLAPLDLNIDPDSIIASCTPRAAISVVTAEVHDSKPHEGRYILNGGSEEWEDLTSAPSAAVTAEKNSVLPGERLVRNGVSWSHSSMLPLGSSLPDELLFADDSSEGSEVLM
- protocol: phosphorylation enrichment, bacterial display (enrichment ratio); higher = better substrate or ligand; peptides without Tyr show the background
quantity: phosphorylation enrichment

What the record says about VGTKRYMAPDV [ACVRL1_Y375_E379D] : phosphorylation enrichment is 0.277

What the record says about FKTPTYPFLLP [PLD2_Y578_YF] : phosphorylation enrichment is 0.588

What the record says about GHLYANDWISI [BEST1_Y227_Y227N] : phosphorylation enrichment is 3.32

What the record says about KFDLMYAKHAF [TUBA1A_Y399_R402H] : phosphorylation enrichment is 0.408

What the record says about ISDDKYGRIRL [ARCN1_Y310] : phosphorylation enrichment is 0.325

What the record says about ILTLKYPIERG [ACTA1_Y71_H75R] : phosphorylation enrichment is 0.442

What the record says about QLLIEYPPEEV [ZZZ3_Y670_K669E] : phosphorylation enrichment is 0.622

What the record says about IGVGSYSVCKR [RPS6KA3_Y433] : phosphorylation enrichment is 0.445

What the record says about LRAGVYPEKDQ [DNM2_Y626] : phosphorylation enrichment is 0.43

What the record says about NRLTDYFEPLL [BBS10_Y536_YF] : phosphorylation enrichment is 0.381

What the record says about ILGRTHFVNHE [NEDD4_Y627_Y627H_YF] : phosphorylation enrichment is 0.423

What the record says about LVMFFYAIFGM [SCN1A_Y1684_I1683F] : phosphorylation enrichment is 0.84

What the record says about IGEGTSGVVYK [CDK2_Y15_Y15S] : phosphorylation enrichment is 0.274

What the record says about CTTIHYNFMRN [TP53_Y234_C238R_YF] : phosphorylation enrichment is 0.489

====

Exercise: for every item that follows, state its recorded SH2 binding enrichment.
- study_system: SHP2-C SH2;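 further: peptide library displayed on the E. coli surface as eCPX fusions, selected cells deep-sequenced, score is each peptide's frequency after selection divided by its frequency in the input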
- protocol: SH2 binding enrichment of the phosphorylated peptide, bacterial display (enrichment ratio); higher = better substrate or ligand; peptides without Tyr show the background

What the record says about RESFKYFPSSL [CXXC1_Y218_YF] : SH2 binding enrichment is 0.565

What the record says about LGRGKYSEVFE [CSNK2A1_Y50] : SH2 binding enrichment is 0.701

What the record says about SLHPGYNFRFA [P2RX7_Y291_Y288H_YF] : SH2 binding enrichment is 0.61

What the record says about ARRMEYLASQK [FGFR2_Y616_G613R] : SH2 binding enrichment is 0.464

What the record says about GRLGEYDIDEV [SMS_Y134_V132G] : SH2 binding enrichment is 0.484

What the record says about LEAVSYSSPYA [RNLS_Y190_R193P] : SH2 binding enrichment is 1.84

What the record says about HHTDEYEYDEL [TGM1_Y134] : SH2 binding enrichment is 0.749

What the record says about LLEGKYEWQEV [CDKN1B_Y74_P69L] : SH2 binding enrichment is 0.464

What the record says about VEFAKYGSLQG [RET_Y809_R813Q_YF] : SH2 binding enrichment is 0.803

What the record says about PGIRMYQVQYN [LRFN1_Y454] : SH2 binding enrichment is 1.37

What the record says about IDAICYFRMEN [NPHS2_Y194_YF] : SH2 binding enrichment is 0.89

What the record says about ASSPVYVPTTR [GATA6_Y188] : SH2 binding enrichment is 0.71

What the record says about NVDGKYSYLKV [GRM3_Y478_G475D] : SH2 binding enrichment is 1.35

What the record says about VVEYGYEFFAK [PPP1CB_Y254_D252Y] : SH2 binding enrichment is 0.675

What the record says about LGRTRYQHVTG [MIPEP_Y510] : SH2 binding enrichment is 0.767

What the record says about GSERDYTYDEL [EIF2S2_Y174_E177D] : SH2 binding enrichment is 0.722

What the record says about CDIPRYIVSQL [MAST2_Y461] : SH2 binding enrichment is 0.654

What the record says about KDHPDYKYPPR [SOX10_Y171_Q174P] : SH2 binding enrichment is 0.961

What the record says about AIGCEYSEINI [SIGLEC12_Y588_Y586C] : SH2 binding enrichment is 0.362

What the record says about EKKDVYKAGEQ [CFH_Y1008] : SH2 binding enrichment is 0.549

What the record says about EQYELYCEMGS [CBL_Y371] : SH2 binding enrichment is 0.776

What the record says about HFIKLYEEKTG [PARP1_Y618_M615I] : SH2 binding enrichment is 1.57

What the record says about GKSHIYFWTLD [EML2_Y230_E235D] : SH2 binding enrichment is 0.712

What the record says about DDPRTYQKYGY [OAS1_Y362_R361T] : SH2 binding enrichment is 0.833

What the record says about SHNELYFEAAE [VANGL1_Y344_E347A_YF] : SH2 binding enrichment is 0.614

What the record says about GNLQEYLTRHV [TGFBR2_Y336] : SH2 binding enrichment is 0.659

What the record says about QLLIEYPPEEV [ZZZ3_Y670_K669E] : SH2 binding enrichment is 0.679

What the record says about IRTIDYRYTVC [IDS_Y497_W502C] : SH2 binding enrichment is 0.948

What the record says about AIGYEYSEINI [SIGLEC12_Y588] : SH2 binding enrichment is 1.58

====

- System: AncSZ
- protocol: phosphorylation enrichment, bacterial display (enrichment ratio); higher = better substrate or ligand; peptides without Tyr show the background
Mark No for phosphorylation enrichment values under 1, and Yes for everything at or above.

Task item: Quick check, phosphorylation enrichment >= 1? VPVDGYISGLL [PAK6_Y81_M76V]
Reply: No

Task item: Quick check, phosphorylation enrichment >= 1? CDIPRYIVSQL [MAST2_Y461]
Reply: Yes

Task item: Quick check, phosphorylation enrichment >= 1? MPIPMYDGSQA [CARMIL1_Y637_A639G]
Reply: No

Task item: Quick check, phosphorylation enrichment >= 1? PATINYLFEKG [NDUFS8_Y84_P85L]
Reply: No

Task item: Quick check, phosphorylation enrichment >= 1? AIIGIYILRDN [CDH23_Y2949_D2954N]
Reply: Yes

Task item: Quick check, phosphorylation enrichment >= 1? HLVLNYGVCVC [JAK2_Y613]
Reply: Yes

Task item: Quick check, phosphorylation enrichment >= 1? RGVVMYTSKDR [ZG16B_Y136_M133V]
Reply: No

Task item: Quick check, phosphorylation enrichment >= 1? HDHYGYRQSVT [CD55_Y245_R240H]
Reply: No

Task item: Quick check, phosphorylation enrichment >= 1? PLDEEYFTLQI [TP53_Y327_G325E]
Reply: Yes

Task item: Quick check, phosphorylation enrichment >= 1? INNIDYFKNTT [FGFR2_Y656_K659N_YF]
Reply: No

Task item: Quick check, phosphorylation enrichment >= 1? KFDLMYAKCAF [TUBA1A_Y399_R402C]
Reply: Yes

Task item: Quick check, phosphorylation enrichment >= 1? KDYETYQPFQN [CTNND2_Y1157]
Reply: Yes

Task item: Quick check, phosphorylation enrichment >= 1? LQFRNYQQLFD [MAN2A1_Y442_K440R]
Reply: Yes

Task item: Quick check, phosphorylation enrichment >= 1? PDMHSYVVRYN [GRIN2D_Y732_M733V]
Reply: Yes

Task item: Quick check, phosphorylation enrichment >= 1? RFVSRYIFNRE [HLA-DQB1_Y62_T60S_YF]
Reply: Yes

Task item: Quick check, phosphorylation enrichment >= 1? GGRIDYIAGLD [APRT_Y60]
Reply: No

Task item: Quick check, phosphorylation enrichment >= 1? IQKKFYRAILE [CHD7_Y1218_YF]
Reply: No

Task item: Quick check, phosphorylation enrichment >= 1? GAAMLYYPSVS [GPR143_Y177]
Reply: No

Task item: Quick check, phosphorylation enrichment >= 1? LEAVSYSSPYA [RNLS_Y190_R193P]
Reply: Yes

Task item: Quick check, phosphorylation enrichment >= 1? AFEQQYSPIPR [NOX1_Y373]
Reply: No

Task item: Quick check, phosphorylation enrichment >= 1? RLQEDYDHSFF [ESD_Y258_G257D_YF]
Reply: Yes

Task item: Quick check, phosphorylation enrichment >= 1? KDQGTYEDYVE [MYL6_Y86]
Reply: Yes

Task item: Quick check, phosphorylation enrichment >= 1? REGAKYVSHGT [ASS1_Y113_A118T]
Reply: No

Task item: Quick check, phosphorylation enrichment >= 1? NTGGYYDLYGG [PTPN11_Y63_D61G]
Reply: Yes

Task item: Quick check, phosphorylation enrichment >= 1? MNPPPYSQFLS [FGF23_Y154]
Reply: No

Task item: Quick check, phosphorylation enrichment >= 1? LPKVSYMKAID [GLRA1_Y307_V308M]
Reply: No

Task item: Quick check, phosphorylation enrichment >= 1? GEDLSYGDVPP [IRS1_Y151]
Reply: Yes

Task item: Quick check, phosphorylation enrichment >= 1? ISSLDYISKSK [VAV3_Y294_T298S]
Reply: No

Task item: Quick check, phosphorylation enrichment >= 1? VVEYGYEFFAK [PPP1CB_Y254_D252Y]
Reply: Yes

Where do these numbers come from? They come from the supplement of paper PMC10065799.
